- procedure_details: Pharmacokinetic study in Sprague Dawley rats, single oral dose, plasma LC/MS/MS
- Format: in vivo
- measurement_context: rat, Compound 1, single oral dose of 5 mg/kg, suspension in 0.5% methylcellulose in water, read-out: AUC (AUClast)
measurement_name: AUC(0-t)

Input line: Let me know recorded AUC(0-t) for "CCCn1c(=O)c2[nH]c(-c3cnn(Cc4cccc(C(F)(F)F)c4)c3)nc2n(CC)c1=O" , thanks.
Output line: < 30000 ng·h/mL
